- Assayed target: T1, CD27 protein (His-tagged, Sino Biological Inc. 10039-H08B1) (human, UniProt P26842 20-192)
- T1 construct: bought; coated onto ELISA plates; also called human CD27; recombinant protein; not shown: His tag
- T1 sequence (looked up): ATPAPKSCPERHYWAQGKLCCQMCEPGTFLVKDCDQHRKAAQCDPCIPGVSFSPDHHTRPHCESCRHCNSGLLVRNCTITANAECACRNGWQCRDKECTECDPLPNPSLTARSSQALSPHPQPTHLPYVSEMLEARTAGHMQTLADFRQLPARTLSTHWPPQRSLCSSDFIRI
- Measurement notes: ELISA on coated His-tagged CD27; note: test concentration or dose not given here
Observation type: ELISA [abs. corr.] (abs. corr.)
Dear colleague, please return just the value in abs. corr., with no unit written.

**Q:** Report ELISA [abs. corr.] for P018.S.06.A.C03 (antibody, V domains shown, V regions on human Ig constant parts; also called AB27_101) VH: QSLEESGGGLFQPGGSLTLTCKASGLDFSTNYYMCWVRQAPGKGLELIACISTSSGNTWYASWAKGRFTISKTSSTTVTLQMTSLTAADTATYFCARCDIVYVGYGYASRLDLWGQGTLVTVSS VL: AQVLTQTPSPVSAAVGGTVTINCQASESVYNNNNLAWYQQKPGQPPKFLIYGASSLASGVPSRFKGSGSGTQFTLTISDLESDDAATYYCAGGGSTSVGAFGGGTEVVVK
**A:** 3.14

**Q:** Report ELISA [abs. corr.] for P018.S.04.A.D05 (antibody, V domains shown, V regions on human Ig constant parts; also called AB27_73) VH: QSLEESGGRLVTPGTPLTLTCTASGIDLSRHAINWVRQAPGKGLEYIGTIYASGSTFYASGAKGRFTISKTSTTVDLGITSLTTEDTATYFCARGITIEWFDLWGQGTLVTVSS VL: AAVLTQTPSSVSAAVGGTVTINCQSSPSVYSNYLSWFQQKPGQPPKLLIYGAATLASGVPSRFRGSGSGTEFTLTITDVQSDDAATYYCLGGYSDTADTIFGGGTEVVVK
**A:** 3.33

**Q:** Report ELISA [abs. corr.] for P018.S.09.A.C03 (antibody, V domains shown, V regions on human Ig constant parts; also called AB27_148) VH: QSVEESGGRLVTPGTPLTLTCTVSGFSLSSYGMIWVRQAPGKGLEWIGWISSNDNKYYARWAKGRFTISKTSTTVDLKMTSLTTEDTATYFCVRNGVYNTGNYFDLWGQGTLVTVSS VL: AQVLTQTPSSVSAAVGGTVTINCQASQSLYNNKNLAWYQQKPGQPPKFLIYTASSLASGVSSRFKGSGSGTQFTLTISDVQSDDAATYYCQGEFDCDSDDCFAFGGGTEVVVK
**A:** 3.53

**Q:** Report ELISA [abs. corr.] for P018.S.07.A.H04 (antibody, V domains shown, V regions on human Ig constant parts; also called AB27_132) VH: QSLEESGGRLVTPGTPLTLTCTVSGLSLSSYDMSWVRQAPGKGLEWIGYIWSGGSTDYASWAKGRFTISKTSTTVDLKIISPTTEDTATYFCARGYVEFDLWGPGTLVTVSS VL: DPVLTQTPPSVSAAVGGTVTINCQSSQSLYSNNYLSWYQQKAGQPPKVLIWPASSLASGVPSRFKGSASGTQFTLTISELQSDDAATYYCQGTFYDSGWLSAFGGGTEVVVK
**A:** 3.4

**Q:** Report ELISA [abs. corr.] for P018.S.07.A.D04 (antibody, V domains shown, V regions on human Ig constant parts; also called AB27_123) VH: QSLEESGGRLVTPGGSLTLTCTVSGIDLSSYAMGWVRQAPGKGLEWIGIISSSGSTYYASWANGRFTISKTSTTVDLKVTSPTTEDTATYFCARDGDSGRGYYFHFWGQGTLVTVSS VL: AFELTQTPASVSAAVGGTVTIKCQASEDIYSLLAWYQQKPGQPPKLLIYDASDLASGVPSRFSGSGSGTEYTLTISDLESADAAIYYCQQGYTTVTIVDNVFGGGTEVVVK
**A:** 3.33

**Q:** Report ELISA [abs. corr.] for P018.S.10.A.C03 (antibody, V domains shown, V regions on human Ig constant parts; also called AB27_172) VH: QSVEESGGRLVTPGTPLTLTCTVSGFSLSSYYMIWVRQAPGKGLEWIGIINTSGGAYYATWANGRFTISRTSTTVDLKITSPTTEDTATYFCARYLDNGFYCPDLWGQGTLVIVSS VL: DIVMTQTPSSVSEAVGGTVTIKCQASEDIYTLLAWYQQKPGQPPKLLIYKASILASGVSSRFKGGGSGADFTLTISDLESADAATYYCQSTYYGAAYIGAFGGGTEVVVK
**A:** 3.21

**Q:** Report ELISA [abs. corr.] for P018.S.06.A.D04 (antibody, V domains shown, V regions on human Ig constant parts; also called AB27_103) VH: QSLEESGGRLVKPDETLTLTCTVSGFDLSSYAVVWVRQAPGKGLEWIGYIYGGSGSTWYASWAKGRFTISKTSSTTVDLKMTSLTTEDTATYFCARAYDSGYIGNSFYAFDPWGPGTLVTVSS VL: DIVMTQTPASVSAAVGGTVTIKCQASQTISSTLAWYQQKPGQPPKLLIYSASTLASGVSSRFKGSGSGPEFTLTISDLESADGGTYTCAGYGTVGVTAFGGGTEVVVR
**A:** 3.28

**Q:** Report ELISA [abs. corr.] for P018.S.04.A.A01 (antibody, V domains shown, V regions on human Ig constant parts; also called AB27_64) VH: QEQLVESGGGLVQPEGSLTLTCTESGFSFSSNAVCWVRQAPGKGLEWIACIYVDSIGSTWYASWAKGRFTISKTSSTTVTLQMTSLTAADTATYFCARGDNIAYFMLWGPGTLVTVSS VL: DIVMTQTPASVEAAVGGTVTIRCQASESITSFLSWYQQKPGQPPKLLIYKISTLASGVPSRFKASGSGTEFTLTISDLESADAAAYYCQGYYYYSNVVYASNGFGGGTEVVVK
**A:** 3.32

**Q:** Report ELISA [abs. corr.] for P018.S.10.A.E06 (antibody, V domains shown, V regions on human Ig constant parts; also called AB27_178) VH: QSLEESGGRLVTPGTPLTLTCTVSGIDLSDYAMAWVRQAPGKGLEYIGFINIGGISSVANWAIGRFTISKSSTTVDLKITSPTTEDTATYFCAREGYTTGGGGPYYGMDLWGPGTLVTVSS VL: DIVMTQTPASVSEPMGGTVTIKCQASQSIHSWLSWYQQKPGQPPKRLIYTASTLASGVPSRFKGSGSGTEYTLTISDLESADAATYYCQRNSYSDFNNYVFGGGTEVVVK
**A:** 3.28

**Q:** Report ELISA [abs. corr.] for P018.S.01.A.G03 (antibody, V domains shown, V regions on human Ig constant parts; also called AB27_22) VH: QSVEESGGRLVTPGTPLTLTCTVSGFSLSSYSMIWVRQAPGKGLEWIGIVYASGSTNYASWAKGRFTISKTSTTVDLKITSPTTEDTATYFCARGDVLYAFDPWGPGTLVTVSS VL: AFELTQTPSSVSAAVGGTVTIKCQASENIYSYLAWYQQKPGQPPKRLIYYASNLASGVSSRFKGSGSGTEFTLTISDLESADAATYYCQYTYSTSPGYIFGGGTEVVVK
**A:** 3.5
